test: MTT cell proliferation assay, melanoblasts; type: cell-based, human; settings: human, 10 μM, MTT, 72 h, read-out: melanoblast proliferation rate after 72 hours
Peptide text beside a SMILES is read from it.
OUTCOME_MEASURE: viability at 72 h, 10 µM (%)
Provide the reading as a plain figure in %.

CCCCCCCCCCCCCCCC(=O)N[C@@H](Cc1ccc(O)cc1)C(=O)N[C@@H](CCCNC(=N)N)C(=O)N[C@@H](CO)C(=O)N[C@@H](CCCNC(=N)N)C(=O)N[C@@H](CCCCN)C(=O)N[C@H](Cc1ccc(O)cc1)C(=O)N[C@@H](CO)C(=O)N[C@@H](CO)C(=O)N[C@@H](Cc1c[nH]c2ccccc12)C(=O)N[C@@H](Cc1ccc(O)cc1)C(N)=O [P4B, Palmitoyl-YRSRK[*Y]SSWY-amide] (HELM PEPTIDE1{[CCCCCCCCCCCCCCCC(=O)[*:2]].Y.R.S.R.K.[dY].S.S.W.Y.[am]}$$$$V2.0) = 100

With those in mind, consider the next molecule.
*Q* // viability at 72 h, 10 µM lookup, key: CCCCCCCCCCCCCCCC(=O)N[C@@H](Cc1ccc(O)cc1)C(=O)N[C@@H](CCCNC(=N)N)C(=O)N[C@@H](CO)C(=O)N[C@@H](CCCNC(=N)N)C(=O)N[C@@H](CCCCN)C(=O)N[C@@H](Cc1ccc(O)cc1)C(=O)N[C@@H](CO)C(=O)N[C@@H](CO)C(=O)N[C@@H](Cc1c[nH]c2ccccc12)C(=O)N[C@@H](Cc1ccc(O)cc1)C(N)=O [P4A, Palmitoyl-YRSRKYSSWY-amide] (HELM PEPTIDE1{[CCCCCCCCCCCCCCCC(=O)[*:2]].Y.R.S.R.K.Y.S.S.W.Y.[am]}$$$$V2.0)
*A* 100

###

assay: Trypan blue cell viability, 7 days, epidermal progenitors; assay type: cell-based; conditions: human, 100 μM, relative to control, read-out: epidermal progenitor viability after 7 days
Ends that are not written are not given here.
OUTCOME_MEASURE: viability at 168 h, 100 µM (%)
Provide the reading as a plain figure in %.

Ac-YRSRKYSSWY-NH2 [P4C, Acetyl-YRSRKYSSWY-amide] = 96.6

*Q* // viability at 168 h, 100 µM lookup, key: YRSRKYSSWY [decapeptide-12, YRSRKYSSWY]
*A* 97.1

###

assay: Trypan blue cell viability, 7 days, melanoblasts; format: cell-based; details: human, 30 μM, relative to control, read-out: melanoblast viability after 7 days
Peptide text beside a SMILES is read from it.
OUTCOME_MEASURE: viability at 168 h, 30 µM
A complete answer gives the number and then names the unit.

CCCCCCCCCCCCCCCC(=O)N[C@@H](Cc1ccc(O)cc1)C(=O)N[C@@H](CCCNC(=N)N)C(=O)N[C@@H](CO)C(=O)N[C@@H](CCCNC(=N)N)C(=O)N[C@@H](CCCCN)C(=O)N[C@H](Cc1ccc(O)cc1)C(=O)N[C@@H](CO)C(=O)N[C@@H](CO)C(=O)N[C@@H](Cc1c[nH]c2ccccc12)C(=O)N[C@@H](Cc1ccc(O)cc1)C(N)=O [P4B, Palmitoyl-YRSRK[*Y]SSWY-amide] (HELM PEPTIDE1{[CCCCCCCCCCCCCCCC(=O)[*:2]].Y.R.S.R.K.[dY].S.S.W.Y.[am]}$$$$V2.0) = 97.8%

With those in mind, consider the next compound.
*Q* // viability at 168 h, 30 µM lookup, key: CCCCCCCCCCCCCCCC(=O)N[C@@H](Cc1ccc(O)cc1)C(=O)N[C@@H](CCCNC(=N)N)C(=O)N[C@@H](CO)C(=O)N[C@@H](CCCNC(=N)N)C(=O)N[C@@H](CCCCN)C(=O)N[C@@H](Cc1ccc(O)cc1)C(=O)N[C@@H](CO)C(=O)N[C@@H](CO)C(=O)N[C@@H](Cc1c[nH]c2ccccc12)C(=O)N[C@@H](Cc1ccc(O)cc1)C(N)=O [P4A, Palmitoyl-YRSRKYSSWY-amide] (HELM PEPTIDE1{[CCCCCCCCCCCCCCCC(=O)[*:2]].Y.R.S.R.K.Y.S.S.W.Y.[am]}$$$$V2.0)
*A* 98.5%

###

test: MTT cell proliferation assay, melanoblasts; type: cell-based, human; settings: human, 1000 μM, MTT, 72 h, read-out: melanoblast proliferation rate after 72 hours
Ends that are not written are not given here.
We begin with a simple list: items and their reported viability at 72 h, 1000 µM.
Provide the reading as a plain figure in %.

Ac-YRSRKYSSWY-NH2 [P4C, Acetyl-YRSRKYSSWY-amide] = 95

With those in mind, consider the next substance.
*Q* // viability at 72 h, 1000 µM lookup, key: YRSRKYSSWY [decapeptide-12, YRSRKYSSWY]
*A* 95

###

We begin with a simple list: items and their reported viability at 72 h, 100 µM.
test: in vitro; assay type: cell-based; conditions: human, human epidermal progenitors
Peptide text beside a SMILES is read from it.
Provide the reading as a plain figure in %.

CCCCCCCCCCCCCCCC(=O)N[C@@H](Cc1ccc(O)cc1)C(=O)N[C@@H](CCCNC(=N)N)C(=O)N[C@@H](CO)C(=O)N[C@@H](CCCNC(=N)N)C(=O)N[C@@H](CCCCN)C(=O)N[C@@H](Cc1ccc(O)cc1)C(=O)N[C@@H](CO)C(=O)N[C@@H](CO)C(=O)N[C@@H](Cc1c[nH]c2ccccc12)C(=O)N[C@@H](Cc1ccc(O)cc1)C(N)=O [P4A, Palmitoyl-YRSRKYSSWY-amide] (HELM PEPTIDE1{[CCCCCCCCCCCCCCCC(=O)[*:2]].Y.R.S.R.K.Y.S.S.W.Y.[am]}$$$$V2.0) = 97

With those in mind, consider the next molecule.
*Q* // viability at 72 h, 100 µM lookup, key: CCCCCCCCCCCCCCCC(=O)N[C@@H](Cc1ccc(O)cc1)C(=O)N[C@@H](CCCNC(=N)N)C(=O)N[C@@H](CO)C(=O)N[C@@H](CCCNC(=N)N)C(=O)N[C@@H](CCCCN)C(=O)N[C@H](Cc1ccc(O)cc1)C(=O)N[C@@H](CO)C(=O)N[C@@H](CO)C(=O)N[C@@H](Cc1c[nH]c2ccccc12)C(=O)N[C@@H](Cc1ccc(O)cc1)C(N)=O [P4B, Palmitoyl-YRSRK[*Y]SSWY-amide] (HELM PEPTIDE1{[CCCCCCCCCCCCCCCC(=O)[*:2]].Y.R.S.R.K.[dY].S.S.W.Y.[am]}$$$$V2.0)
*A* 97

###

assay: Trypan blue cell viability, 7 days, melanoblasts; assay type: cell-based; settings: human, 300 μM, relative to control, read-out: melanoblast viability after 7 days
Ends that are not written are not given here.
OUTCOME_MEASURE: viability at 168 h, 300 µM
A complete answer gives the number and then names the unit.

YRSRKYSSWY [decapeptide-12, YRSRKYSSWY] = 95.2%

*Q* // viability at 168 h, 300 µM lookup, key: Ac-YRSRKYSSWY-NH2 [P4C, Acetyl-YRSRKYSSWY-amide]
*A* 96%

###

Assay: Trypan blue cell viability, 7 days, epidermal progenitors
Assay type: cell-based
Settings: human, 300 μM, relative to control, read-out: epidermal progenitor viability after 7 days
Description: The effect of each of the decapeptides upon cell viability was also tested. In particular, cells were incubated with the decapeptide at various concentrations and then counted for viability relative to the control (untreated cells) using trypan blue. Cytotoxicity was measured according to the following formula: [1−(# of cells in control−# of live cells in test sample)/# of cells in control]×100 percent.
Ends that are not written are not given here.
We begin with a simple list: items and their reported viability at 168 h, 300 µM.
A complete answer gives the number and then names the unit.

*Q* // viability at 168 h, 300 µM lookup, key: Ac-YRSRKYSSWY-NH2 [P4C, Acetyl-YRSRKYSSWY-amide]
*A* 95.7%

*Q* // viability at 168 h, 300 µM lookup, key: YRSRKYSSWY [decapeptide-12, YRSRKYSSWY]
*A* 95.6%

###

experiment: MTT cell proliferation assay, fibroblasts; type: cell-based, human; conditions: human, 30 μM, MTT, 72 h, read-out: fibroblast proliferation rate after 72 hours
Ends that are not written are not given here.
OUTCOME_MEASURE: viability at 72 h, 30 µM (%)
Provide the reading as a plain figure in %.

YRSRKYSSWY [decapeptide-12, YRSRKYSSWY] = 99

*Q* // viability at 72 h, 30 µM lookup, key: Ac-YRSRKYSSWY-NH2 [P4C, Acetyl-YRSRKYSSWY-amide]
*A* 99

###

We begin with a simple list: items and their reported viability at 168 h, 100 µM.
assay: Trypan blue cell viability, 7 days, melanoblasts; type: cell-based; details: human, 100 μM, relative to control, read-out: melanoblast viability after 7 days
Ends that are not written are not given here.
A complete answer gives the number and then names the unit.

Ac-YRSRKYSSWY-NH2 [P4C, Acetyl-YRSRKYSSWY-amide] = 97%

*Q* // viability at 168 h, 100 µM lookup, key: YRSRKYSSWY [decapeptide-12, YRSRKYSSWY]
*A* 97.3%
